Test system: HepG2-TP53BP1-CLTA
Assay: lowest phenotypically active concentration; higher = less potent
Details: treatment time: 24 h
Overview of reported lowest phenotypically active concentration across a group of molecules:
// note: answer is a bare numeric in µM

Item: N#CC(C#N)=NNc1cccc(Cl)c1 Test system: HepG2-TP53BP1-CLTA Read-out: lowest phenotypically active concentration Value: ?
9

###

Test system: WPMY1-GM130-SQSTM1
Assay: phenotypically active (imaging signature differs from DMSO and reproducible) at any of 0.3-9 uM (binary (1 = active, 0 = inactive)); higher = active
Conditions: treatment time: 24 h
Pick from t for active, f for inactive when you respond.

For orientation, consider the following solved cases.
C[C@]1(C(=O)O)CCC[C@]2(C)c3cc(O)ccc3CC[C@@H]12 : f
C[C@H]1O[C@@H](O[C@H]2[C@@H](O)C[C@H](O[C@H]3[C@@H](O)C[C@H](O[C@H]4CC[C@@]5(C)[C@H](CC[C@@H]6[C@@H]5CC[C@]5(C)[C@@H](C7=CC(=O)OC7)[C@@H](O)C[C@]65O)C4)O[C@@H]3C)O[C@@H]2C)C[C@H](O)[C@@H]1O : t
COC(=O)[C@@]1(O)C[C@H]2O[C@]1(C)n1c3ccccc3c3c4c(c5c6ccccc6n2c5c31)C(=O)NC4 : t
CCCCCOc1ccc(C(=O)c2cccc3ccccc23)c2ccccc12 : f
C[C@@H]1CN([C@H]2CC[C@](C#N)(c3ccc(F)cc3)CC2)CC[C@]1(C(=O)O)c1ccccc1 : f

Returns: the outcome recorded for O=P1(N(CCCl)CCCl)NCCCO1 (stereo not given) [cyclophosphamide] in this assay.
f

Returns: the outcome recorded for C/C=C(/C)C(=O)O[C@H]1C(C)=C2[C@H]([C@@H]1OC(=O)CCCCCCC)[C@@](C)(OC(C)=O)C[C@H](OC(=O)CCC)[C@@]1(O)[C@H]2OC(=O)[C@@]1(C)O in this assay.
t

Returns: the outcome recorded for COc1ccc2c(c[n+](C)c3c4cc5c(cc4ccc23)OCO5)c1OC [Chelerythrine chloride] in this assay.
f

Returns: the outcome recorded for N#Cc1c(Oc2cccc(OS(=O)(=O)CCCC(F)(F)F)c2)cccc1C(F)(F)F in this assay.
f

Returns: the outcome recorded for CCN(CC)CCN1C(=O)CN=C(c2ccccc2F)c2cc(Cl)ccc21 in this assay.
f

Returns: the outcome recorded for CCCN1C[C@H](CSC)C[C@@H]2c3cccc4[nH]cc(c34)C[C@H]21 [pergolide] in this assay.
t
